Target: Dual specificity tyrosine-phosphorylation-regulated kinase 2 (Homo sapiens);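 also: reported values are means of DYRK2 inhibition from screening the GSK PKIS collection at 1 µM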
Sequence (whole entry): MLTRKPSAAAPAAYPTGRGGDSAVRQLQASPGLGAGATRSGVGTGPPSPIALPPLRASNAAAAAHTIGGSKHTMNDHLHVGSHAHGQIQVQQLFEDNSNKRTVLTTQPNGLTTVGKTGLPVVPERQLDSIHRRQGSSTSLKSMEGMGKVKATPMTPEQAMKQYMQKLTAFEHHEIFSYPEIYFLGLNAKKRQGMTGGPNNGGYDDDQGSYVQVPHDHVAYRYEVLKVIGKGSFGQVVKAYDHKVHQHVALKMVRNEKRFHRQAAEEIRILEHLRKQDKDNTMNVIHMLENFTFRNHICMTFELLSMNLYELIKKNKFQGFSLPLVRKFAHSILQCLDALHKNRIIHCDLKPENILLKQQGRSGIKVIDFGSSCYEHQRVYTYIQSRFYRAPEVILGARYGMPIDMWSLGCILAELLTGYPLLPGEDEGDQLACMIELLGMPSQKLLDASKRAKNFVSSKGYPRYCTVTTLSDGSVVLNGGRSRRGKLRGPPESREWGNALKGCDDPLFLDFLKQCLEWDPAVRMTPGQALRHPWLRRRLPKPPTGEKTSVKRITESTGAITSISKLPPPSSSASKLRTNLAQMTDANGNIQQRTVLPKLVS
Conditions: at 1 µM
measuredQuantity: inhibition
Answer with the figure and its unit, nothing else.

Worked cases, inhibition given:
compoundSmiles	measuredQuantity	endpointResult
O=C1Nc2ccc(-c3cccnc3)cc2C1=Cc1cc(Br)c(O)c(Br)c1	inhibition	15.5%
COC(=O)c1cncc(/C=C/c2c(C)cc(O)cc2C)c1	inhibition	4%
c1ccc(Cc2nc3ccc(Nc4ncnc5ccccc45)cc3[nH]2)cc1	inhibition	3.84%
Oc1cccc(-c2nc(-c3ccccc3)[nH]c2-c2ccncc2)c1	inhibition	5.4%

What does the record list as inhibition for "COc1cccc(-n2ncc3c(N/N=C/c4ccc(C)cc4)ncnc32)c1" ? 13.6%

Cool, now "CCn1c(-c2nonc2N)nc2c(C#CC(C)(C)O)nc(OCCNC)cc21" 5.26%

###

Here, each record is paired with measured inhibition data.
molecular target: Serine/threonine-protein kinase PLK1 (Homo sapiens) (UniProt P53350); details: at 1 µM;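 also: reported value is a mean PLK1 inhibition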
Sequence (P53350 whole entry): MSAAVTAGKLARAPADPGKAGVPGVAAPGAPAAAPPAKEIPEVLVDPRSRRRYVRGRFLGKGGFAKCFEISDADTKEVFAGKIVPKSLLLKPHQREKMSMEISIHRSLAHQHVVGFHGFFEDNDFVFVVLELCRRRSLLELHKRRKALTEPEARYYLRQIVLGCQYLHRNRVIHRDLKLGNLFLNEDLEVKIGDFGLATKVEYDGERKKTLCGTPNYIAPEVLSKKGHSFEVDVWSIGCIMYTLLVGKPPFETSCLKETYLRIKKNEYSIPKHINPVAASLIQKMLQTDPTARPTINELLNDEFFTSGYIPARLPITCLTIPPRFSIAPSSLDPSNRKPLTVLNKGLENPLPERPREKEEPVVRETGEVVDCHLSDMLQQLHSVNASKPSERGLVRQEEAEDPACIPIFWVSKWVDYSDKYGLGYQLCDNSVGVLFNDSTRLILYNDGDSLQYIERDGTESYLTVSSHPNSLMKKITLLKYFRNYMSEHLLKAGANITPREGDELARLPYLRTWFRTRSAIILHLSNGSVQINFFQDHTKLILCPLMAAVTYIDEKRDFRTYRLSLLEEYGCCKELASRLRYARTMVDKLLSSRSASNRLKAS
Response body: numeric value in %, unit text excluded.

What does the record list as inhibition for "COc1cc2ncn(-c3cc(OCc4ccccc4S(C)(=O)=O)c(C#N)s3)c2cc1OC" ? 47.5

Cool, now "Cc1cc(Cl)cc2c1NC(=O)C2=NNc1ccc(S(N)(=O)=O)cc1" 2.07

Cool, now "Cc1ccc(O)cc1Nc1ccnc2ccc(S(C)(=O)=O)cc12" 2.78

Cool, now "Cc1ccc2c(-c3ccnc(Nc4cccc(C(F)(F)F)c4)n3)c(-c3ccccc3)nn2n1" 6.37

Cool, now "FC(F)(F)c1ccc(-c2nn3ncccc3c2-c2ccnc(Nc3ccc4c(c3)OCCO4)n2)cc1" -1.77

###

biological target: Sphingosine kinase 1 (Homo sapiens) (UniProt Q9NYA1); details: at 1 µM;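 also: mean SPHK1 inhibition value reported from the GSK PKIS kinase panel screen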
Sequence (Q9NYA1 whole entry): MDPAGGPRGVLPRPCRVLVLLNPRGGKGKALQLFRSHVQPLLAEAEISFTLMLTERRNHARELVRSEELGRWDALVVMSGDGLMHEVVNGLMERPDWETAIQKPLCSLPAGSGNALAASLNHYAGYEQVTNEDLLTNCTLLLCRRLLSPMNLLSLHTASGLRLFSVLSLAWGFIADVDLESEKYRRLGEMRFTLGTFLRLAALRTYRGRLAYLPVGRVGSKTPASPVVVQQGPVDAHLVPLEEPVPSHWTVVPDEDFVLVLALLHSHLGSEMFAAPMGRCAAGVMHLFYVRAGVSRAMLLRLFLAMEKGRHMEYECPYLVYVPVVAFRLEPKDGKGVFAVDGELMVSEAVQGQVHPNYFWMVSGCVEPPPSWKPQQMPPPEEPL
Here, each record is paired with measured inhibition data.
Response body: numeric value in %, unit text excluded.

compoundSmiles	testTarget	inhibition / %
CCS(=O)(=O)c1ccc(OC)c(Nc2nccc(N(C)c3ccc4c(C)n[nH]c4c3)n2)c1	Sphingosine kinase 1 (Homo sapiens) (UniProt Q9NYA1)	-1.1
NS(=O)(=O)c1ccc(Nc2cc(-c3cccc(O)c3)n[nH]2)cc1	Sphingosine kinase 1 (Homo sapiens) (UniProt Q9NYA1)	-2.64

What does the record list as inhibition for "COC(=O)c1cncc(/C=C/c2c(C)cc(O)cc2C)c1" ? -4
